The reported measurements were obtained from PubChem BioAssay (NCI).

Tested on: SNB-75 CNS
assay method text: NCI tumour cell line growth inhibition, 48 h
outcome measure: GI50

* COc1cccc(/C=N\NC(=O)c2ccncc2)c1O | 47.6 µM
* O=C(COc1ccccc1)NNc1ccccc1 | 60.8 µM
* O=C(Nc1ccc(Cl)c(C(F)(F)F)c1)Nc1ccc(-c2cccnc2)cc1N1CCC(CO)CC1 | 2.1 µM
* COc1cc2c3c(n(CCCN=[N+]=[N-])c(=O)c2cc1OC)-c1ccccc1C3=O | 2.53 µM

For the next question, use this molecule.
Notebook: pull reported GI50 for SNB-75 CNS, entry `Cc1ccc(/C(=N/NS(=O)(=O)c2cc(C)c(Cl)cc2Cl)Sc2cc(Cl)c(C)cc2S(N)(=O)=O)cc1`
> 100 µM
